Test system: line DC-3F/AD
Experiment: Cytotoxicity (Microculture Tetrazolium Assay): reversal of resistance to actinomycin D, line DC-3F/AD
Assay type: cell-based, Chinese hamster
Details: 1 μM compound, 4 days
Description: The pharmacological study of the compounds of the present invention consisted first of all in an evaluation in vitro carried out on resistant cells. The parameter measured is the cytotoxicity of the antitumour drug, quantified in the absence and in the presence of the reversing compound. […] The cells are then incubated for 4 days. […] The results are expressed as a reversion factor (RF): PG,29 [formula]
Would you kindly list Reversion factors (cytotoxicity) with the line DC-3F/AD for each of these compounds?

I am curious: what Reversion factors (cytotoxicity) with the line DC-3F/AD value has been reported for `C=CCNc1nc(NCC=C)nc(NCCN2CCC(NCC3c4ccccc4CCc4ccccc43)CC2)n1` ?
1

Quick one: C=CCNc1nc(NCC=C)nc(N2CCC(NCC3c4ccccc4NC(=O)c4ccccc43)CC2)n1 (racemic)
1.1

Quick one: `C=CCNc1nc(NCC=C)nc(NCC2CCN(CC3c4ccccc4CCc4ccccc43)CC2)n1`
1.6

Quick one: `C=CCNc1nc(NCC=C)nc(N2CCC(NCC3c4ccccc4Oc4ccccc43)CC2)n1`
39
